# TARGET SYSTEM: human mAChR M4 (Homo sapiens, UniProt P08173)
# Sequence (P08173 1-479): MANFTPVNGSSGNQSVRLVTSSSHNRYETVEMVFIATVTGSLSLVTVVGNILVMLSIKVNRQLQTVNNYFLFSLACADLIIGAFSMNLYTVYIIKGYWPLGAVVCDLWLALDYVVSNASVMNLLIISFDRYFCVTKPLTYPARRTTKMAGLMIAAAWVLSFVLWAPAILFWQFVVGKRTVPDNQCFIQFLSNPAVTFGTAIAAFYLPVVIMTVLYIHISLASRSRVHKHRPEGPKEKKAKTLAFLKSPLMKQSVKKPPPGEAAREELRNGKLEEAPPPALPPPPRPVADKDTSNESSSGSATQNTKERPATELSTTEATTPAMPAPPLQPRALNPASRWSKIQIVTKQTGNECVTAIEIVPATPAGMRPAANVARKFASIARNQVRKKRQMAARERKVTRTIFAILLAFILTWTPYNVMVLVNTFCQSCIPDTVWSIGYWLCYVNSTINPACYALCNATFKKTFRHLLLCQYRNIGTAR
# PROTOCOL SUMMARY: mAChR M4 cell-based functional assay: calcium mobilization (Fluo-4, FDSS), potentiation of EC20 acetylcholine response in hM4-Gqi5 CHO-K1 cells
# TEST CONDITIONS: potentiation of EC20 acetylcholine response, calcium mobilization, human M4
QUANTITY NAME: pEC50
To interpret pEC50, take it as minus log10 of a concentration measured in moles per litre.

Worked set:
SMILES RECORD: Cc1cc2ncc(Cl)c(=O)n2nc1N1CCc2ncc(C(F)(F)F)cc2C1
TARGET SYSTEM: human mAChR M4 (Homo sapiens, UniProt P08173)
MEAS VALUE: 6.74

SMILES RECORD: Cc1cc(=O)n2nc(N3CCc4ncc(-c5ccc(F)c(F)c5)cc4C3)c(C)c(C)c2n1
TARGET SYSTEM: human mAChR M4 (Homo sapiens, UniProt P08173)
MEAS VALUE: 5.91

SMILES RECORD: Cc1cc2nc(C)c(F)c(=O)n2nc1N1CCc2ncc(C(F)(F)F)cc2C1
TARGET SYSTEM: human mAChR M4 (Homo sapiens, UniProt P08173)
MEAS VALUE: 6.87

SMILES RECORD: Cc1cc2nccc(=O)n2nc1N1CCc2ncc(-c3cnc(C)n3C)cc2C1
TARGET SYSTEM: human mAChR M4 (Homo sapiens, UniProt P08173)
MEAS VALUE: 5.98

SMILES RECORD: Cc1c(N2CCc3ncc(-c4cnn(-c5ccccn5)c4)cc3C2)nn2c(=O)cc(C(F)F)nc2c1C
TARGET SYSTEM: human mAChR M4 (Homo sapiens, UniProt P08173)
MEAS VALUE: 5.99

// moving on: another record for pEC50
Req: I am curious: what pEC50 value has been reported for "Cc1cc(=O)n2nc(N3CCc4ncc(-c5cnn(C6COC6)c5)cc4C3)c(C)c(C)c2n1" ?
Resp: 6.09

* * *

# TARGET SYSTEM: human mAChR M4 (Homo sapiens)
# Sequence (P08173 1-479): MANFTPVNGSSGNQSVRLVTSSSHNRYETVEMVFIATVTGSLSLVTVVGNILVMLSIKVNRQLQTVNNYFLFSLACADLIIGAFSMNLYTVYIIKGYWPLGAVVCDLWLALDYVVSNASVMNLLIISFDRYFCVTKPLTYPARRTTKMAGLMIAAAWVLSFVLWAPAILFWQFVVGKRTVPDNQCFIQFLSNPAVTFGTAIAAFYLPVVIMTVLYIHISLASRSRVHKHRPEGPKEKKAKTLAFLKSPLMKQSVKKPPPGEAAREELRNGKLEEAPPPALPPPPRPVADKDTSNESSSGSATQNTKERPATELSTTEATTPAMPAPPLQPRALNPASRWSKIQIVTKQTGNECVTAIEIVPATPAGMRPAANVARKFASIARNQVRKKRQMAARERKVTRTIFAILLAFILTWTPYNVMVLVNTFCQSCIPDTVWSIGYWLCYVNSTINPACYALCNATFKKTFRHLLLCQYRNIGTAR
# PROTOCOL SUMMARY: mAChR M4 cell-based functional assay: calcium mobilization (Fluo-4, FDSS), potentiation of EC20 acetylcholine response in hM4-Gqi5 CHO-K1 cells
# TEST CONDITIONS: potentiation of EC20 acetylcholine response, calcium mobilization, human M4
# Experimental: […] Calcium flux was measured using the Functional Drug Screening System (FDSS) 6000 or 7000 (Hamamatsu Corporation, Tokyo, Japan) as an increase in the fluorescent static ratio. […] Agonist activity was analyzed as a concentration-dependent increase in calcium mobilization upon compound addition. Positive allosteric modulator activity was analyzed as a concentration-dependent increase in the EC20 acetylcholine response. […]
QUANTITY NAME: pEC50
To interpret pEC50, take it as minus log10 of a concentration measured in moles per litre.

COMPOUND: Cc1cc2nc(C(F)F)cc(=O)n2nc1N1CCc2ncc(N3CCOc4ncccc43)cc2C1 [Compound 2-29]
TARGET SYSTEM: human mAChR M4 (Homo sapiens)
MEAS VALUE: 7.89

Req: For human mAChR M4 (Homo sapiens), provide pEC50 of Cc1cc2nccc(=O)n2nc1N1CCc2ncc(Nc3c(F)cncc3F)cc2C1 [Compound 2-154] please.
Resp: 7.39

Req: For human mAChR M4 (Homo sapiens), provide pEC50 of Cc1cc2nccc(=O)n2nc1N1CCc2ncc(Nc3cc(F)ccc3C#N)cc2C1 [Compound 2-81] please.
Resp: 6.64

Req: For human mAChR M4 (Homo sapiens), provide pEC50 of Cc1cc2nccc(=O)n2nc1N1CCc2ncc(-c3c(C)noc3C)cc2C1 [Compound 1-416] please.
Resp: 6.10

Req: For human mAChR M4 (Homo sapiens), provide pEC50 of Cc1cc(=O)n2nc(N3CCc4ncc(Oc5ccccc5F)cc4C3)c(C)cc2n1 [Compound 3-2] please.
Resp: 7.26

Req: For human mAChR M4 (Homo sapiens), provide pEC50 of COc1ccc(-c2cnc3c(c2)CN(c2nn4c(=O)ccnc4cc2C)CC3)cn1 [Compound 1-60] please.
Resp: 6.85

Req: For human mAChR M4 (Homo sapiens), provide pEC50 of Cc1cc2nccc(=O)n2nc1N1CCc2ncc(Nc3ccccc3Cl)cc2C1 [Compound 2-67] please.
Resp: 7.60

Req: For human mAChR M4 (Homo sapiens), provide pEC50 of Cc1c(N2CCc3ncc(-c4ccnn4C)cc3C2)nn2c(=O)ccnc2c1C [Compound 1-63] please.
Resp: 6.69

Req: For human mAChR M4 (Homo sapiens), provide pEC50 of Cc1cc2nccc(=O)n2nc1N1CCc2ncc(-c3cccc4[nH]cc(C)c34)cc2C1 [Compound 1-435] please.
Resp: 5.70

Req: For human mAChR M4 (Homo sapiens), provide pEC50 of Cc1cc(=O)n2nc(N3CCc4ncc(-c5cnn(CCN6CCOCC6)c5)cc4C3)c(C)c(C)c2n1 [Compound 1-178] please.
Resp: 5.60
